Hey, just so you know, these numbers are from ChEMBL document CHEMBL1149329.

Could you please report measured IC50 for the items listed next?
Tested on: SK-N-MC
Assay: […] antiproliferative activity against SK-N-MC cell line
Format: functional
Conditions: Homo sapiens
Answer in nM, number only, no unit symbol.

Request: Can you look up the measured IC50 of CCCCS(=O)(=O)N[C@@H]1c2cc3c(cc2[C@@H](c2cc(OC)c(O)c(OC)c2)[C@H]2C(=O)OC[C@@H]21)OCO3 for me?
Result: 85.7

Request: Cool, now COc1cc([C@@H]2c3cc4c(cc3[C@@H](O[C@@H]3O[C@@H]5CO[C@@H](C)O[C@H]5[C@H](O)[C@H]3O)[C@H]3COC(=O)[C@H]23)OCO4)cc(OC)c1O [ETOPOSIDE]
Result: 275

###

Biological target: DNA topoisomerase II (Homo sapiens) (UniProt P11388+Q02880)
Assay: Inhibition of human DNA Topoisomerase II mediated DNA cleavage through the stabilization of transient DAN/topoisomerase II cleavage complex
Assay type: protein assay
measure.name: Activity
When you answer, write just the number.

Request: Lab request: please report Activity under test system DNA topoisomerase II (Homo sapiens) (UniProt P11388+Q02880) for COc1cc([C@@H]2c3cc4c(cc3[C@@H](NS(=O)(=O)N(C)C)[C@H]3COC(=O)[C@H]23)OCO4)cc(OC)c1O
Result: 44

Request: Cool, now COc1cc([C@@H]2c3cc4c(cc3[C@@H](N)[C@H]3COC(=O)[C@H]23)OCO4)cc(OC)c1O
Result: 0

Request: Cool, now COc1cc([C@@H]2c3cc4c(cc3[C@@H](N=[N+]=[N-])[C@H]3COC(=O)[C@H]23)OCO4)cc(OC)c1O
Result: 44

Request: Cool, now COc1cc([C@@H]2c3cc4c(cc3[C@@H](NS(C)(=O)=O)[C@H]3COC(=O)[C@H]23)OCO4)cc(OC)c1O
Result: 50

Request: Cool, now COc1cc([C@@H]2c3cc4c(cc3[C@@H](O[C@@H]3O[C@@H]5CO[C@@H](C)O[C@H]5[C@H](O)[C@H]3O)[C@H]3COC(=O)[C@H]23)OCO4)cc(OC)c1O [ETOPOSIDE]
Result: 50

Request: Cool, now CCCCN(CCCC)S(=O)(=O)N[C@@H]1c2cc3c(cc2[C@@H](c2cc(OC)c(O)c(OC)c2)[C@H]2C(=O)OC[C@@H]21)OCO3
Result: 0

###

Tested on: P388
Assay: Median survival time of treated animals/median survival time of control animals; further: test concentration or dose not given here
Format: functional, Mus musculus
measure.name: T/C (%)
Answer in %, number only, no unit symbol.

Request: Can you look up the measured T/C of COc1cc([C@@H]2c3cc4c(cc3[C@@H](NS(=O)(=O)N3CCCCC3)[C@H]3COC(=O)[C@H]23)OCO4)cc(OC)c1O for me?
Result: 121

Request: Cool, now COc1cc([C@@H]2c3cc4c(cc3[C@@H](NS(=O)(=O)N3CCN(C)CC3)[C@H]3COC(=O)[C@H]23)OCO4)cc(OC)c1O
Result: 229

Request: Cool, now COc1cc([C@@H]2c3cc4c(cc3[C@@H](O[C@@H]3O[C@@H]5CO[C@@H](C)O[C@H]5[C@H](O)[C@H]3O)[C@H]3COC(=O)[C@H]23)OCO4)cc(OC)c1O [ETOPOSIDE]
Result: 233

Request: Cool, now COc1cc([C@@H]2c3cc4c(cc3[C@@H](NS(=O)(=O)c3cccs3)[C@H]3COC(=O)[C@H]23)OCO4)cc(OC)c1O
Result: 102
